System: 885512-296-R-J2-PDC complex spheroid growth, % test/control;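 further: spheroids exposed to compounds for seven days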
Experiment: Anticancer human tumor 885512-296-R-J2-PDC patient-derived breast carcinoma cell line growth inhibition [AhR]; active means viability on the fitted dose curve at most 10% of control; inactive means the rest
Settings: second compound 0.316 µM; first compound 0.1 µM
The categories you may choose from are active, inactive

Task item: // param item: COc1cc(C2c3cc4c(cc3C(OC3OC5COC(C)OC5C(O)C3O)C3COC(=O)C23)OCO4)cc(OC)c1O (stereo not given) + CC(CO)NC(=O)c1cc(-c2ccc(Cl)cc2)nn(-c2cnn(C)c2)c1=O ; yields the recorded call
Reply: inactive

Task item: Tell me the recorded outcome of this test for O=C(C=Cc1cccc(S(=O)(=O)Nc2ccccc2)c1)NO + CC(CO)NC(=O)c1cc(-c2ccc(Cl)cc2)nn(-c2cnn(C)c2)c1=O .
Reply: inactive

Task item: I would be grateful if you could indicate the recorded call for CC1(C)CCC(CN2CCN(c3ccc(C(=O)NS(=O)(=O)c4ccc(NCC5CCOCC5)c([N+](=O)[O-])c4)c(Oc4cnc5[nH]ccc5c4)c3)CC2)=C(c2ccc(Cl)cc2)C1 + Cc1cncc(-c2nc(NCCc3c[nH]c4ccccc34)c3ncn(C(C)C)c3n2)c1 .
Reply: inactive

Task item: Status in this test for NS(=O)(=O)OCC1CC(n2ccc3c(NC4CCc5ccccc54)ncnc32)CC1O (stereo not given) + CC(CO)NC(=O)c1cc(-c2ccc(Cl)cc2)nn(-c2cnn(C)c2)c1=O ?
Reply: inactive

Task item: Status in this test for COc1cc(C2c3cc4c(cc3C(OC3OC5COC(C)OC5C(O)C3O)C3COC(=O)C23)OCO4)cc(OC)c1O (stereo not given) + Cc1ccccc1N=Nc1ccc(NC(=O)c2ccnn2C)c(C)c1 ?
Reply: inactive

Task item: Can you look up the reported call for Cn1ncnc1C1c2n[nH]c(=O)c3cc(F)cc(c23)NC1c1ccc(F)cc1 (stereo not given) + CC(CO)NC(=O)c1cc(-c2ccc(Cl)cc2)nn(-c2cnn(C)c2)c1=O for me?
Reply: inactive

Task item: What did this assay record as the result for Nc1ccn(C2OC(CO)C(O)C2(F)F)c(=O)n1 (stereo not given) + Cc1ccccc1N=Nc1ccc(NC(=O)c2ccnn2C)c(C)c1 ?
Reply: active

Task item: Give the logged outcome of this assay for the following molecule: COc1cc(Nc2ncc3c(n2)-c2ccc(Cl)cc2C(c2c(F)cccc2OC)=NC3)ccc1C(=O)O + Cc1cncc(-c2nc(NCCc3c[nH]c4ccccc34)c3ncn(C(C)C)c3n2)c1
Reply: inactive

Task item: Hello, I am checking results. What call was entered for COc1cc(Nc2ncc3c(n2)-c2ccc(Cl)cc2C(c2c(F)cccc2OC)=NC3)ccc1C(=O)O + Cc1ccccc1N=Nc1ccc(NC(=O)c2ccnn2C)c(C)c1 ?
Reply: inactive

Task item: Entry COc1ccc([C@@H](O)c2cc(-c3ncnc4cc(N5CCOCC5)ccc34)c(F)cc2Cl)nn1 + Cc1ccccc1N=Nc1ccc(NC(=O)c2ccnn2C)c(C)c1 : call = ?
Reply: inactive

Origin of the recorded values: PubChem BioAssay AID1919006
